Values from the nanobody polyreactivity screen of Harvey et al. (2022)

# assay.overview: yeast display, Sf9 membrane polyspecificity reagent, FACS + sequencing; frameworks hold sequencing errors

sequence	polyreactivity (PSR sort gate)
QVQLVESGGGLVQAGGSLRLSCAASGRTLAGNAMGWYRQAPGQERELVAAISQGGGSTYYADSVKGRFTISRDKAKNTVYLQMNSLKPEDTAGYYCAAEIPRLWASFATLWYDYWGQGTQVTVSS	low polyreactivity
QVQLVESGRGLVQAGGSLRLSCAASGRIFVAYTMGLYRQAPGKERELVASINRSGGTYYADSVKGRFTISRDNAKNTVYLQMNRLKPEDTAVYYCNAVFRSRSYFSKGDYWGQGTQVTVSS	high polyreactivity
QVQLVESGGGLVQAGGSLSLSCAASGSTFVGYAMGWYRQAPGKEREFVAAITRGGSTNYADSVKGRFTISRDNAKNTVYLQMNSLNPEDTAVYYCAARDRREGFNFDYWGQGTQVTVSS	low polyreactivity
QVQLVESGGGLVQAGGSLRLSCAASGSTFSYNAMGWYRQAPGKERELVAAITSTGRTYYADSVKGRFTITRDNAKNTVYLQMISLKPEDTAGYYCNKVYYRFYSADFGYGWYLRYDYWGQGTQVTVSS	high polyreactivity
QVQLVESGGGLVQAGGSLRLSCAASGRTFGWYAMGWYRQAPGKEREFVASINTIGGSTYYADSVKGRFTISRDNAKNTVYLQMNSLKPEDTAVYYCAAVGYVIPYDSVGYTTTDYYWGQGTQVTVSS	low polyreactivity
QVQLVESGGGLVQAGGSLRLSCAASGIIIGSNAMGWYRQAPGKERELVAAISDSGGSTYYADSVKGRFTISRDNAKNTVYLQMNSLKPEDTAVYYCAAAGRGSWTTYRFDYWGQGTQVTVSS	high polyreactivity
QVQLVESGGGLVQAGGSLRLSCAASGSIFDVYAMGWYRQAPGQERELVAAISRGDSTNYADSVKGRFTISRDNAKNTVYLQMNSLKPEDTAVYYCAADCYYWGSGWRYDSWGQGTQVTVSS	low polyreactivity
QVQLVDSGGGLVQAGGSLRLSCGASGFIIARNAMGGYRHPPGKERELVAAISRNGGRTSYADSVKGRFTISRDTAKNTVYLQMNSLNPEDTAVYYCAKAQGYVTWTGAYAYDYWGQGTQVTVSS	high polyreactivity
QVQLVESGGGLVQAGGSLRLSCAASGSTFYLNAMGWYRQAPGKERELVAAINGSGGSTYADSVKGRFTISRDNAKNTVYLQMNSLKPEDTAVYYCAADGTGYPGYSYPGNDYDYWGQGTQVTVSS	low polyreactivity
QVHLVESGGGLVQAGGSLRLSSAASGITFGWYAMGWYRQAPGKERELVAAIDRGGSTYYADSVKGRFTISRDNAKITVYLQMNSLKPEDTAVYYCAVELRLRYGYDYWGQGTEVTVSS	high polyreactivity
QVQLVESGGGLVQAGGSLRLSCAASGFIFYYYDMGWYRQAPGKERELVAAITYDGGSTYYADSVKGRFTSSRDNAKNTVYLQMNSLKPEDTAVYYCNAVYGQYYDYWGQGTQVTVSS	low polyreactivity
QVQLVESGGGLVQAGGSLRLSCAASGRIFTSYAMGWYRQAPGKEREFVAAITRRGGSTYYADSVKGRFTISRDNAKNTVYLQMKSLKQEDTAVYYCAADIYSVPYPSWARYDYWGQGTQVTVSS	high polyreactivity
QVQLVESGGGLVQAGGSLRLSCAASGRTFSWYAMGGYRQAPGTERELVASISRGGSKSYADSVKGRFTISRDNAKNTVYLQMNSLKPEYTAVYYCAAGGFARTISYYWGQGTQVTVSS	high polyreactivity
QVQLVESGGGLVQAGGSLRLSCAASGSIFNGYVMGWYRQAPGKERELVAAISSGGRTYYADSVKGRFTISRDNAKNTVYLQMNSLKPEDTAVYYCNAYWLHYPSRVRKITAYDYWGQGTQVTVSS	low polyreactivity
QVQLVESGGGLVQAGGSLRLSCAASAITYAYYPMGWYRQAPGKETELVAGITDVGSTNYADSVKGRFTLSRDNAKNTVYLQMNSLKPEDTAGYYCAAEYDGPYYSFYPEQRYYWGQGTQVTVSS	low polyreactivity
QVQLVESGGGIVQAGGCLRLSFAASGFSFAKNAMGSYRQAPGKERELVAAIRSGGSTKYADSVNGRFTISRDNAKNTVYLQMNSLKPEDTAVYYCNARSTWSRTRPAYDYWGQGTQVTVSS	high polyreactivity
QVQLVESGGGIVQAGGSLRLSCAASGSTFWFNDMGWYRAAPGKEREFVAAISSSGGSTYYADSVKGRFTISRDNAKNTVYVQMNSLKPEDTAVYYWAVEVVRDYRYADWGQGTQVTVSS	low polyreactivity
QVQLVDSGGGLVQAGGSLRLSCAASGRTIGGNAMGWSRQAPGKERELVAGINISGGSTNYADSVKGRFTISRDNAKNTVYLQMNSLKPEDTAVYYCNADTAVYAWDDDYWGQGTQVTVSS	low polyreactivity
QVQLVESGGGLVQAGGSLRLSCAASGSIFVWYVMGWYRQAPGKERELVAAITWSAARTYDADSVKGRFTISRDNAKNTVYLQMNSLKPADTAVYYCAADHVSYQPSSRIFDYWGQGTQVTVSS	low polyreactivity
QYQLVESGRGLVQAGGSLRLSCAASGSTFRSYAMGWYRQAPGKERDLVAAITSSGGRTYYADSVKGRFTISRDNAKNTVYLQMNSLKPEDTAVYYCAARTYSWGDWGQGTQVTVSS	high polyreactivity
QVQIVESGGGLVQAGRSLSLSCAASGYTFLPNVMGWYRQAPGKERELVAAIYSRGGRTYYADSVKGRFTISRDNAKNTVYLQMNSLKPEDTAVYYCAAYTRYTTGSAGIYRDDYWGQGTQVTVSS	high polyreactivity
